# test.system: wild type PDE9A2 catalytic domain (Homo sapiens, UniProt O76083)
# Construct: The coding region for residues 181-506 of PDE9A2 was amplified by PCR; inferred from vector pET15b and Ni-NTA purification) (N); made in house; host or cells: E. coli BL21 (Codonplus)
# Sequence (O76083 241-566): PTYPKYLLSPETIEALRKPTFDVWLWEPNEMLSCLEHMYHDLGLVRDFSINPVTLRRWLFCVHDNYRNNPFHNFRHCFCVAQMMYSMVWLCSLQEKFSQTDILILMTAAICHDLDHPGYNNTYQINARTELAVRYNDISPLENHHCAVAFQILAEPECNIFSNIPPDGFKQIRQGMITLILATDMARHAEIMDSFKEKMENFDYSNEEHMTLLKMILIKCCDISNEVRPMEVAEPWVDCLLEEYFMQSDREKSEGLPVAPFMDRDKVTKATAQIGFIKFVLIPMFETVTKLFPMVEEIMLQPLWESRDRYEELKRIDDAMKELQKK
# assay.method.text: PDE9A2 enzymatic assay, IC50 of inhibitors (3H-cGMP substrate)
# Format: biochemical
# test.conditions: wild type enzyme; 30 nM 3H-cGMP; read-out: IC50
observation.type: pIC50
Just so you know, pIC50 here is -log10 of the concentration in molar units; reply with that number alone.

State its pIC50 on wild type PDE9A2 catalytic domain (Homo sapiens, UniProt O76083): CCCOc1ccccc1-c1nc2nn[nH]c2c(=O)[nH]1 4.80
